- assaySystem: ALP in normal human articular chondrocytes (NHACs)
- assayMethodText: Alkaline Phosphatase (ALP) activity assay (staining and quantitation) in NHACs, prevention of chondrocyte hypertrophy
- Format: cell-based
- conditionLabel: human IL-1 beta 10 ng/mL, 12 days, Fast Blue RR staining, high content imaging, listed as 72?, read-out: ALP in NHAC IC50
measure: IC50

compound="Cn1nc(C(F)(F)F)cc1[C@H]1[C@H]2O[C@H](C[C@@H]2O)[C@@H]1C(=O)Nc1cc(C(F)(F)F)ccc1C#N (single isomer, unassigned) [Example 72b]" measure=IC50 valuemeasured="1800 nM"

* * *

Reported Emax values are given for each entry in this list.
- System: ALP in normal human articular chondrocytes (NHACs)
- assayMethodText: Alkaline Phosphatase (ALP) activity assay (staining and quantitation) in NHACs, prevention of chondrocyte hypertrophy
- Assay type: cell-based
- conditionLabel: Chondrocyte, 288 h, value in parentheses, human IL-1 beta 10 ng/mL, 12 days, read-out: ALP in NHAC (% Efficacy)
measure: Emax (%)

compound="COc1cc(NC(=O)[C@@H]2[C@@H](c3cccc(C(F)(F)F)c3)[C@H]3O[C@@H]2C[C@@H]3O)cc(C(F)(F)F)c1 (racemic)" assaysystem="ALP in normal human articular chondrocytes (NHACs)" unitstext=% valuemeasured=104
compound="Cn1cc([C@H]2[C@H]3O[C@H](C[C@@H]3O)[C@@H]2C(=O)Nc2ccc(C#N)c(C(F)(F)F)c2)c(C(F)(F)F)n1 (racemic)" assaysystem="ALP in normal human articular chondrocytes (NHACs)" unitstext=% valuemeasured=34
compound="Cc1cc(C(F)(F)F)cc(NC(=O)[C@@H]2[C@@H](c3cn(C)nc3C(F)(F)F)[C@H]3O[C@@H]2C[C@@H]3O)n1 (racemic)" assaysystem="ALP in normal human articular chondrocytes (NHACs)" unitstext=% valuemeasured=61
compound="Cn1cc([C@H]2[C@H]3O[C@H](C[C@@H]3O)[C@@H]2C(=O)Nc2cc(Cl)cc(C(F)(F)F)c2)c(C(F)(F)F)n1 (racemic)" assaysystem="ALP in normal human articular chondrocytes (NHACs)" unitstext=% valuemeasured=101
compound="O=C(Nc1ccc(C(F)(F)F)cc1)[C@@H]1[C@@H](c2ccnc(C(F)(F)F)c2)[C@H]2O[C@@H]1C[C@@H]2O (racemic)" assaysystem="ALP in normal human articular chondrocytes (NHACs)" unitstext=% valuemeasured=66
compound="Cn1cc([C@H]2[C@H]3O[C@H](C[C@@H]3O)[C@@H]2C(=O)Nc2ccc(C(F)(F)F)c(F)c2)c(C(F)(F)F)n1 (racemic)" assaysystem="ALP in normal human articular chondrocytes (NHACs)" unitstext=% valuemeasured=65
